# test.summary: Red blood cell distribution in whole blood
# Type: in vitro ADME
# condition.notes: male, Sprague-Dawley, rat, whole blood (EDTA)
measure: Kp at 2 h, 1 µM

* CC(=O)O.NCc1ccccc1O [2-HOBA, 2-Hydroxybenzylamine acetate] | 0.72

---

# test.summary: in vitro
# condition.notes: both, human, plasma (pooled), pH 7.4
measure: fraction unbound at 4 h, 1 µM

* CC(=O)O.NCc1ccccc1O [2-HOBA, 2-Hydroxybenzylamine acetate] | 0.921

---

# test.summary: Red blood cell distribution in whole blood
# Type: in vitro ADME
# condition.notes: male, Sprague-Dawley, rat, whole blood (EDTA)
measure: blood plasma ratio at 2 h, 10 µM

- CC(=O)O.NCc1ccccc1O [2-HOBA, 2-Hydroxybenzylamine acetate]: 0.9

---

# test.summary: Plasma protein binding by equilibrium dialysis
# Format: in vitro ADME
# condition.notes: male, Sprague-Dawley, rat, plasma, pH 7.4
measure: fraction unbound at 4 h, 1 µM

* CC(=O)O.NCc1ccccc1O [2-HOBA, 2-Hydroxybenzylamine acetate] | 0.76

---

# test.summary: Red blood cell distribution in whole blood
# Type: in vitro ADME
# condition.notes: male, Sprague-Dawley, rat, whole blood (EDTA)
measure: Kp at 2 h, 10 µM

- CC(=O)O.NCc1ccccc1O [2-HOBA, 2-Hydroxybenzylamine acetate]: 0.78

---

# test.summary: Red blood cell distribution in whole blood
# Format: in vitro ADME
# condition.notes: human, whole blood (pooled, EDTA)
measure: blood plasma ratio at 2 h, 1 µM

• CC(=O)O.NCc1ccccc1O [2-HOBA, 2-Hydroxybenzylamine acetate] = 1.12
